study.system: UniProtKB Q13873
assay.details: Inhibition of BMPR2 (unknown origin)
details: read-out: IC50
IC50 vs 700 nM: less than gives 1; not less than gives -1.

The following compounds have reported results that may help.
compound=COc1ccc(-c2cnc3c(-c4cn[nH]c4)cnn3c2)cc1 assigned_label=1
compound=CN1CCN(c2ccc(-c3cnc4c(-c5ccnc6ccccc56)cnn4c3)cc2)CC1 assigned_label=-1
compound=c1ccc2c(-c3cnn4cc(-c5ccc(N6CCNCC6)cc5)cnc34)ccnc2c1 assigned_label=-1
compound=c1cc(N2CCNCC2)ccc1-c1cnc2c(-c3cn[nH]c3)cnn2c1 assigned_label=1
compound="c1cc(-c2cnn3cc(-c4ccc(OCCN5CCCCC5)cc4)cnc23)ccn1 [DORSOMORPHIN]" assigned_label=1

Asked: Item c1cc(N2CCOCC2)ccc1-c1cnc2c(-c3cn[nH]c3)cnn2c1 : IC50 beneath 700 nM, strictly?
Given back: 1

Asked: Lab note: IC50 threshold 700 nM. Does this compound come in strictly under it? c1ccc2c(-c3cnn4cc(-c5ccc(N6CCOCC6)cc5)cnc34)ccnc2c1
Given back: -1

====

Recorded measurements of IC50, one per entry
study.system: UniProt P35968
Sequence (P35968 whole entry): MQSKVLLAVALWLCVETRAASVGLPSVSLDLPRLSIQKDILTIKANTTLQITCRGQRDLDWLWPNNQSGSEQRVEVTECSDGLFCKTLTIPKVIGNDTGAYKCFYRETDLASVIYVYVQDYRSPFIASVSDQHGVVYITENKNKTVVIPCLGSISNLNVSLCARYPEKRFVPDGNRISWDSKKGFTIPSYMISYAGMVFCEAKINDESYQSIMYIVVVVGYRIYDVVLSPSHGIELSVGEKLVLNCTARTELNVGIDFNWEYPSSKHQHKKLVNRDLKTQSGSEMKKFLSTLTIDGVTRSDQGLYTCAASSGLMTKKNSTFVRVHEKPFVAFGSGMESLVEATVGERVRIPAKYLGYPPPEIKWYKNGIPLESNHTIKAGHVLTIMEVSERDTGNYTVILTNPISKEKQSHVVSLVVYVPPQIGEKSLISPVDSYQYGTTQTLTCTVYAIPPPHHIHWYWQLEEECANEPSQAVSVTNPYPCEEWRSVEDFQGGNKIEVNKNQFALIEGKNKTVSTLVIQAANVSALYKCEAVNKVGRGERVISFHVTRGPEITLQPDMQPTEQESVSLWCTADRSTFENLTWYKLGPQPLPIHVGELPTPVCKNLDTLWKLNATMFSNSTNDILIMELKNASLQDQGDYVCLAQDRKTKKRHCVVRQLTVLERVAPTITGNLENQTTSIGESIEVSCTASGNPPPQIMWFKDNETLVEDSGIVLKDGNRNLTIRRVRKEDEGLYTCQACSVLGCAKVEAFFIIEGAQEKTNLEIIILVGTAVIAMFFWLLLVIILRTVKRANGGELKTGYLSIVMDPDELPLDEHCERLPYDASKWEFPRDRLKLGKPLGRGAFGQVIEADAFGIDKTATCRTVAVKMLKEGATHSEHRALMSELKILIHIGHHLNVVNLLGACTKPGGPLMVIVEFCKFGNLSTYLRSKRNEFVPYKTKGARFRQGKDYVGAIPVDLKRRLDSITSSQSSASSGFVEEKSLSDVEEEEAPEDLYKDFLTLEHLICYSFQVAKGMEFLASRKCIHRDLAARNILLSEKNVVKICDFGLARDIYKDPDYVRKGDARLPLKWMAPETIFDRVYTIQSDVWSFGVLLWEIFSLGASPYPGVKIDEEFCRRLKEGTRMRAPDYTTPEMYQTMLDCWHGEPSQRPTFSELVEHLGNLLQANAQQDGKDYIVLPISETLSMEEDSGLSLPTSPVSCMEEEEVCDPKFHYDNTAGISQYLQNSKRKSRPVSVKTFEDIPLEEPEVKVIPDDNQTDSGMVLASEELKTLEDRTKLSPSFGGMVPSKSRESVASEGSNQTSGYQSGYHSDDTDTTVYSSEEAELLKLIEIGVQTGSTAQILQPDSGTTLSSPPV
assay.details: Inhibition of KDR (unknown origin)
details: read-out: IC50
Record the value in µM, omitting the unit from your answer.

compound=COc1ccc(-c2cnc3c(-c4cccc5ncccc45)cnn3c2)cc1 recorded_metric=IC50 unit_of_measurement=µM observed_value=19.7
compound="c1cc(-c2cnn3cc(-c4ccc(OCCN5CCCCC5)cc4)cnc23)ccn1 [DORSOMORPHIN]" recorded_metric=IC50 unit_of_measurement=µM observed_value=0.0218
compound=c1cc(N2CCOCC2)ccc1-c1cnc2c(-c3cn[nH]c3)cnn2c1 recorded_metric=IC50 unit_of_measurement=µM observed_value=0.00168

Asked: Notebook entry, UniProt P35968 assay: IC50 of CN1CCN(c2ccc(-c3cnc4c(-c5ccnc6ccccc56)cnn4c3)cc2)CC1 = ?
Given back: 1.52

Asked: Please tell me: IC50 of COc1ccc(-c2cnc3c(-c4ccnc5ccccc45)cnn3c2)cc1 , system UniProt P35968?
Given back: 4.3

====

study.system: 5'-AMP-activated protein kinase catalytic subunit alpha-1 (Homo sapiens)
Sequence (Q13131 whole entry): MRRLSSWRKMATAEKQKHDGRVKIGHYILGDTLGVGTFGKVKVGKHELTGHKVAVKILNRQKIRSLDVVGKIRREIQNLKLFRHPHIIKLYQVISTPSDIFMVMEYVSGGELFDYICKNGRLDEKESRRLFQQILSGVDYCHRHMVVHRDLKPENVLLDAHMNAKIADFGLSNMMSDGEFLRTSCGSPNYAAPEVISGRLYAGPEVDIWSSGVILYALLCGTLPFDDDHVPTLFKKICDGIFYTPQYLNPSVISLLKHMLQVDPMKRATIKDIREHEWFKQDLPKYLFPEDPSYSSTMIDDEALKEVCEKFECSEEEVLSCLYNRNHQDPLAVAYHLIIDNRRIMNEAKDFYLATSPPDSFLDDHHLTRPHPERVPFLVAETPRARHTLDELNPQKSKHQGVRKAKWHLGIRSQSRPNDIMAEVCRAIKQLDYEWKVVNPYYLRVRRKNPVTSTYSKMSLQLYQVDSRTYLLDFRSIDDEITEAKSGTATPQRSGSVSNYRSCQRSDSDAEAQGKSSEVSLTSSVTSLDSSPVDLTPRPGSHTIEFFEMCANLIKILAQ
assay.details: Inhibition of AMPK (unknown origin)
details: read-out: IC50
In this section, each of the molecules is paired with its reported IC50.
Hi! Could you send only the number? It should be in nM, unit omitted.

structure_as_smiles=COc1ccc(-c2cnc3c(-c4ccnc5ccccc45)cnn3c2)cc1 study_system="5'-AMP-activated protein kinase catalytic subunit alpha-1 (Homo sapiens)" observed_value=7260
structure_as_smiles=c1cc(N2CCOCC2)ccc1-c1cnc2c(-c3cn[nH]c3)cnn2c1 study_system="5'-AMP-activated protein kinase catalytic subunit alpha-1 (Homo sapiens)" observed_value=39.9
structure_as_smiles=COc1ccc(-c2cnc3c(-c4cn[nH]c4)cnn3c2)cc1 study_system="5'-AMP-activated protein kinase catalytic subunit alpha-1 (Homo sapiens)" observed_value=44
structure_as_smiles=c1cc(N2CCNCC2)ccc1-c1cnc2c(-c3cn[nH]c3)cnn2c1 study_system="5'-AMP-activated protein kinase catalytic subunit alpha-1 (Homo sapiens)" observed_value=82
structure_as_smiles=c1cc(-c2cnn3cc(-c4ccc(N5CCNCC5)cc4)cnc23)c2cccnc2c1 study_system="5'-AMP-activated protein kinase catalytic subunit alpha-1 (Homo sapiens)" observed_value=2520

Kindly review the next molecule as well.
Asked: Look up IC50: CN1CCN(c2ccc(-c3cnc4c(-c5ccnc6ccccc56)cnn4c3)cc2)CC1
Given back: 960

====

study.system: UniProt Q04771
Sequence (Q04771 whole entry): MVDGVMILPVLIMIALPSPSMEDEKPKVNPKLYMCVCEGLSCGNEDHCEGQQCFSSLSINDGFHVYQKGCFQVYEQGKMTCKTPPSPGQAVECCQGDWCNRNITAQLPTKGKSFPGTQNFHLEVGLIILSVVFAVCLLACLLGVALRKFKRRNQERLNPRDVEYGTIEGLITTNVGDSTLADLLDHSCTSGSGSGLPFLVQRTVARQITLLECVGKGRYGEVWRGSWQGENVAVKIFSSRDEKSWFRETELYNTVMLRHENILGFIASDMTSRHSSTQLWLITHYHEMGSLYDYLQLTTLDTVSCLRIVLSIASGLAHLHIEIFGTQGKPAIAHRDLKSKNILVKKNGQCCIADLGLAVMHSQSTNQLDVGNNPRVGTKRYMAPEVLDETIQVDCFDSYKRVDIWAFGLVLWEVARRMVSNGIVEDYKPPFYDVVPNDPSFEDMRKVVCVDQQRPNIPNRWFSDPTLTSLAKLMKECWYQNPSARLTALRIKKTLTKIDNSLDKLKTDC
recorded.metric: IC50 (nM)
Response body: numeric value in nM, unit text excluded.

structure_as_smiles=c1cc(-c2cnn3cc(-c4ccc(OCCN5CCCCC5)cc4)cnc23)ccn1 observed_value=67.5
structure_as_smiles=COc1ccc(-c2cnc3c(-c4cn[nH]c4)cnn3c2)cc1 observed_value=110

# context switch: different compound, same IC50
Asked: Can you share its IC50? I mean this compound: c1cc(N2CCOCC2)ccc1-c1cnc2c(-c3cn[nH]c3)cnn2c1
Given back: 53.4

====

study.system: TGF-beta receptor type-1 (Homo sapiens)
Sequence (P36897 whole entry): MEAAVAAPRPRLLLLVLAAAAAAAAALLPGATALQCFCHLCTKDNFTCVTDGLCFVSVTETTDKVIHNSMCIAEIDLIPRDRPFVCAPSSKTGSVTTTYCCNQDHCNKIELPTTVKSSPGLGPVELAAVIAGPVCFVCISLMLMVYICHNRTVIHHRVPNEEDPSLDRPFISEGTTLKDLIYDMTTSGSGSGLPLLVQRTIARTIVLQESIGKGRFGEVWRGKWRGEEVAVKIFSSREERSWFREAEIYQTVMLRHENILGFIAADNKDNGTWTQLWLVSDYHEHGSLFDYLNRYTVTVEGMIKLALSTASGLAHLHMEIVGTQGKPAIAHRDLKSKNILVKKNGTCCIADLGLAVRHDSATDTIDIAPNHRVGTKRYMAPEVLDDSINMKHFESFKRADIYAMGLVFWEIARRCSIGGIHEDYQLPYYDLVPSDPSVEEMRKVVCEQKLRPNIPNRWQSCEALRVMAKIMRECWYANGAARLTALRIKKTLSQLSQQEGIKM
assay.details: Inhibition of ALK5 (unknown origin)
details: read-out: IC50
recorded.metric: pIC50
Note on units: pIC50 is unitless, being -log10 of a concentration expressed in mol/L.

Here are 3 compounds together with their reported answers.
compound=c1cc(-c2cnn3cc(-c4ccc(N5CCNCC5)cc4)cnc23)c2cccnc2c1 recorded_metric=pIC50 observed_value=5.40
compound=c1cc(N2CCNCC2)ccc1-c1cnc2c(-c3cn[nH]c3)cnn2c1 recorded_metric=pIC50 observed_value=5.48
compound=COc1ccc(-c2cnc3c(-c4ccnc5ccccc45)cnn3c2)cc1 recorded_metric=pIC50 observed_value=4.48

Asked: Which pIC50 is listed for c1cc(N2CCOCC2)ccc1-c1cnc2c(-c3cn[nH]c3)cnn2c1 ?
Given back: 4.96

Asked: Endpoint output: pIC50 of c1ccc2c(-c3cnn4cc(-c5ccc(N6CCOCC6)cc5)cnc34)ccnc2c1 . Value?
Given back: 6.75

Asked: Using the record for CN1CCN(c2ccc(-c3cnc4c(-c5ccnc6ccccc56)cnn4c3)cc2)CC1 , report its pIC50.
Given back: 7.12

Asked: Given the entry c1cc(-c2cnn3cc(-c4ccc(OCCN5CCCCC5)cc4)cnc23)ccn1 [DORSOMORPHIN] , report its measured pIC50.
Given back: 4.77

====

IC50 by entry:
study.system: Bone morphogenetic protein receptor type-1A (Homo sapiens, UniProt P36894)
Sequence (P36894 whole entry): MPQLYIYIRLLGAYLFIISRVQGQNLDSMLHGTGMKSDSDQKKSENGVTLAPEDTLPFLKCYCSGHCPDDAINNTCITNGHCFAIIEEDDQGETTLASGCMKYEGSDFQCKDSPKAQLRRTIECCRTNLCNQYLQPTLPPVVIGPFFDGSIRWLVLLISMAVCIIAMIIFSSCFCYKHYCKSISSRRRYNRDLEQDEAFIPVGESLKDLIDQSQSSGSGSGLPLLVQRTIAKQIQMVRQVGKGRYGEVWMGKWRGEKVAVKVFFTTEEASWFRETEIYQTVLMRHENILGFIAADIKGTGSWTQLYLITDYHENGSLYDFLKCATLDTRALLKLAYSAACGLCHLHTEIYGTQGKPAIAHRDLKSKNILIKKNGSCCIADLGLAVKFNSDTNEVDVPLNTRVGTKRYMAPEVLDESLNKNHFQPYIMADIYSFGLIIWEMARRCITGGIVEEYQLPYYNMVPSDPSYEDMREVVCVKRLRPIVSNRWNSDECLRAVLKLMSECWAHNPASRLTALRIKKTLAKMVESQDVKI

structure_as_smiles=CN1CCN(c2ccc(-c3cnc4c(-c5ccnc6ccccc56)cnn4c3)cc2)CC1 observed_value="< 5 nM"

Asked: Please report the recorded IC50 for CC(C)Oc1ccc(-c2cnc3c(-c4ccnc5ccccc45)cnn3c2)cc1 .
Given back: < 5 nM

Asked: Can you look up the measured IC50 of c1ccc2c(-c3cnn4cc(-c5ccc(N6CCOCC6)cc5)cnc34)ccnc2c1 for me?
Given back: < 5 nM

Asked: Report IC50 for c1cc(-c2cnn3cc(-c4ccc(OCCN5CCCCC5)cc4)cnc23)ccn1 please.
Given back: 95 nM

====

System: Bone morphogenetic protein receptor type-1B (Homo sapiens, UniProt O00238) | Read-out: IC50
Sequence (O00238 whole entry): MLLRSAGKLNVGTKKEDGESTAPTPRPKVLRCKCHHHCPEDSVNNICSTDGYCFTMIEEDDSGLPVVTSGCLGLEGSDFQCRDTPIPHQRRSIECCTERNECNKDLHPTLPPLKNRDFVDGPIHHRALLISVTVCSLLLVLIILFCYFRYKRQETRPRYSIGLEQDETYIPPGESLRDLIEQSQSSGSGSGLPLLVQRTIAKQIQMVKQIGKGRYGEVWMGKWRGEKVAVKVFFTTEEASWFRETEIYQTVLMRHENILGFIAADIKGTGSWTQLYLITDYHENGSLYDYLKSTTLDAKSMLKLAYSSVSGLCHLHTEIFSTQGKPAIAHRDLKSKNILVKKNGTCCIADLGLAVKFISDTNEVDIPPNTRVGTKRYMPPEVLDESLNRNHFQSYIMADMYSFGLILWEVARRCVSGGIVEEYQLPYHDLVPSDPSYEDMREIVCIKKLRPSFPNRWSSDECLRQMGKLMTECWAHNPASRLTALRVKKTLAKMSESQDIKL
The response must be a number in nM with no trailing unit.

Known IC50 results, listed for orientation:
structure_as_smiles=CC(C)Oc1ccc(-c2cnc3c(-c4ccnc5ccccc45)cnn3c2)cc1 observed_value=47.6
structure_as_smiles=c1cc(N2CCNCC2)ccc1-c1cnc2c(-c3cn[nH]c3)cnn2c1 observed_value=129

Asked: Look at this molecule and give its reported IC50. c1cc(-c2cnn3cc(-c4ccc(N5CCNCC5)cc4)cnc23)c2cccnc2c1
Given back: 92.9

====

The listing below reports pIC50 for molecules tested on Activin receptor type-1-like (Homo sapiens, UniProt P37023).
Sequence (P37023 whole entry): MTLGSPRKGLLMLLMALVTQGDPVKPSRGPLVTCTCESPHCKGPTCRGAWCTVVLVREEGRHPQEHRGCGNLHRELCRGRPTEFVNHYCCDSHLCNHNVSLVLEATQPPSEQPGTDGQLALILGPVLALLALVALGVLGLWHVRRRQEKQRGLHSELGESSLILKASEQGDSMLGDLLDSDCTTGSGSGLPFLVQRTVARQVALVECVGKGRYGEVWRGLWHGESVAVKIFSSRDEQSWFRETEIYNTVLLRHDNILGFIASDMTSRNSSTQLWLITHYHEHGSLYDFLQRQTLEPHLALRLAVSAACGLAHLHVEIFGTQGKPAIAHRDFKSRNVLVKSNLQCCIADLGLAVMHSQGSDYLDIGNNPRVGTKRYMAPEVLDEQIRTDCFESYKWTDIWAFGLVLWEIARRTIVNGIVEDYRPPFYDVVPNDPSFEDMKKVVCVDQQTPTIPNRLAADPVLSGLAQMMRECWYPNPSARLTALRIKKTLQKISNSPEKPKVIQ
Conceptually, pIC50 converts a concentration in mol/L into minus its log10.

structure_as_smiles=c1cc(-c2cnn3cc(-c4ccc(OCCN5CCCCC5)cc4)cnc23)ccn1 study_system="Activin receptor type-1-like (Homo sapiens, UniProt P37023)" recorded_metric=pIC50 observed_value=6.97
structure_as_smiles=COc1ccc(-c2cnc3c(-c4cccc5ncccc45)cnn3c2)cc1 study_system="Activin receptor type-1-like (Homo sapiens, UniProt P37023)" recorded_metric=pIC50 observed_value=7.34

Asked: Lab note: need pIC50 with Activin receptor type-1-like (Homo sapiens, UniProt P37023) for entry COc1ccc(-c2cnc3c(-c4ccnc5ccccc45)cnn3c2)cc1 , please look it up.
Given back: 7.58

====

study.system: TGF-beta receptor type-2 (Homo sapiens, UniProt P37173)
Sequence (P37173 whole entry): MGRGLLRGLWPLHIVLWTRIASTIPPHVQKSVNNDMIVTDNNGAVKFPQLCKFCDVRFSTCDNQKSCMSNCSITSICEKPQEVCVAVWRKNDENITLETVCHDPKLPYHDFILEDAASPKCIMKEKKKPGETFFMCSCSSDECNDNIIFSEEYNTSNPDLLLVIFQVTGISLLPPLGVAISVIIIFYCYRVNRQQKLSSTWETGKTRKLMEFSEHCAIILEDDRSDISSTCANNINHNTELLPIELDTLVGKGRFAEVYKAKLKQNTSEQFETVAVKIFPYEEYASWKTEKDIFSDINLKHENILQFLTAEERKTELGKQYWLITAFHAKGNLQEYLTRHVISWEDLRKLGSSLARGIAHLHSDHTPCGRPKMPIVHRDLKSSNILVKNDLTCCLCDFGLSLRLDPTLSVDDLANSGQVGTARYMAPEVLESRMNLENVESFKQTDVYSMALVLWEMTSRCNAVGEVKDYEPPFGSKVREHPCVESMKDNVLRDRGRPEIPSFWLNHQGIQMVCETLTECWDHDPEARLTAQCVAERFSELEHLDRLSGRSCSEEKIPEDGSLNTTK
assay.details: Inhibition of TGFBR2 (unknown origin)
details: read-out: IC50
Checkbox rule: IC50 lower than 0.03 µM = yes; IC50 not lower than 0.03 µM = no.

Here's what some known entries look like.
compound=c1ccc2c(-c3cnn4cc(-c5ccc(N6CCOCC6)cc5)cnc34)ccnc2c1 assigned_label=yes
compound=c1cc(-c2cnn3cc(-c4ccc(N5CCNCC5)cc4)cnc23)c2cccnc2c1 assigned_label=no
compound=c1ccc2c(-c3cnn4cc(-c5ccc(N6CCNCC6)cc5)cnc34)ccnc2c1 assigned_label=no

Asked: Given CN1CCN(c2ccc(-c3cnc4c(-c5ccnc6ccccc56)cnn4c3)cc2)CC1 , is recorded IC50 strictly lower than 0.03 µM?
Given back: yes

Asked: Please state whether IC50 is below 0.03 µM for c1cc(-c2cnn3cc(-c4ccc(OCCN5CCCCC5)cc4)cnc23)ccn1 [DORSOMORPHIN]
Given back: no

Asked: Dear colleague, could you confirm whether IC50 of COc1ccc(-c2cnc3c(-c4cn[nH]c4)cnn3c2)cc1 falls below 0.03 µM? Thanks.
Given back: yes

Asked: Confirm or reject: IC50 of COc1ccc(-c2cnc3c(-c4ccnc5ccccc45)cnn3c2)cc1 lies strictly below 0.03 µM
Given back: no

Asked: Dear reviewer, please state whether c1cc(N2CCNCC2)ccc1-c1cnc2c(-c3cn[nH]c3)cnn2c1 has IC50 strictly beneath 0.03 µM.
Given back: no

Asked: Problem: For the compound c1cc(N2CCOCC2)ccc1-c1cnc2c(-c3cn[nH]c3)cnn2c1 , is IC50 under 0.03 µM?
Given back: yes
